composite Z-score: recorded values
- assay method text: small-molecule microarray binders of probe aXIP, primary screen, biochemical, NeuroSMM set, 635/667 nm fluorescence (AID 1119);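 further: probe is the protein aXip251-270 applied at 1 µg/mL to compound-printed slides; binding of probe to printed compounds measured as 667 nm fluorescence plus signal to noise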
- experimental parameters: higher = more signal, called active from +8 up or from −8 down
Please state the value as a number alone, without comment.

Previously resolved entries follow.
{"molecule": "COCCOC(=O)N1C(=O)[C@@]2(c3ccccc31)[C@H](c1ccc(O)cc1)N1[C@H](c3ccccc3)[C@H](c3ccccc3)OC(=O)[C@H]1[C@@H]2C(=O)N1CCc2cc(OC)c(OC)cc2C1", "composite Z-score": 2.47}
{"molecule": "COc1ccc(C#Cc2ccc3c(c2)[C@]2(C(=O)N3)[C@H](c3ccc(O)cc3)N3[C@H](c4ccccc4)[C@H](c4ccccc4)OC(=O)[C@H]3[C@@H]2C(=O)NC[C@H](O)c2ccccc2)cc1", "composite Z-score": -0.118}
{"molecule": "COC(=O)[C@@]1(Cc2ccccc2)[C@H]2c3cc(C(=O)N4CCCC4)n(Cc4ccc(C)o4)c3C[C@H]2CN1C(=O)c1ccccc1", "composite Z-score": -0.56}
{"molecule": "CC=CC(O)C1C=CC2C(=O)N(c3ccccc3)C(=O)C2N1Nc1ccc(C(C)C)cc1 (stereo unspecified)", "composite Z-score": 0.609}
{"molecule": "C=CC[C@@]1(C(=O)O)N=C(c2ccc(OCCCO)cc2)O[C@@H]1c1ccccc1N=[N+]=[N-]", "composite Z-score": 0.544}

Next:
IN: I would be grateful if you could share the reported composite Z-score for "O=C1O[C@@H](c2ccccc2)[C@@H](c2ccccc2)N2[C@@H](c3ccc(O)cc3)[C@]3(C(=O)Nc4ccc(C#CC5=CCCCC5)cc43)[C@@H](C(=O)O)[C@H]12" .
OUT: 0.341

====

- assay method text: basal HepG2 mitochondrial membrane potential changes, profiling panel, cell-based, JC-1 fluorescence, 24 h, 100 nL compound (AID 1167); further: test concentration not given here
- experimental parameters: higher = more signal
measurement kind: z-score
Give only the figure.

{"compound": "O=C1O[C@H](c2ccccc2)[C@H](c2ccccc2)N2[C@H]1[C@@H](C(=O)Nc1nc3ccccc3s1)[C@]1(C(=O)Nc3ccccc31)[C@H]2c1ccc(O)cc1", "z-score": -3.78}

IN: What value of z-score has been recorded for this entry: "COC(=O)[C@@]1(Cc2ccccc2)N=C(c2ccc(OCCCO)cc2)O[C@H]1c1ccccc1N=[N+]=[N-]"
OUT: 1.12

IN: Now consider C=CCC(OC(C)=O)[C@@H]1[C@@H](N(Cc2cc3ccccc3o2)C(=O)c2ccc(C)cc2)c2cc(OCCCO)ccc2N1C(=O)c1ccc2ccccc2c1 (some centres undefined) .
OUT: 2.27

IN: Request: CC(C)c1ccc(NN2C(C(O)c3ccc(N(C)C)cc3)C=CC3C(=O)N(c4ccccc4)C(=O)C32)cc1 (centres undefined)
OUT: -0.337

====

composite z-score values, listed per item
- assay target: Neurogenic locus notch homolog protein 2 (Homo sapiens)
- assay method text: Notch2 binders on small-molecule microarrays, primary screen, biochemical, small-molecule microarray, 635 nm fluorescence, stem cell growth factors (AID 1073)
- experimental parameters: Notch2 binding, higher = more signal
Respond using a number only.

IN: Need composite z-score of CC1CC/C=C\[C@H]2OC34C=CCN(Cc5ccccc5)C(=O)[C@H]3N(CCCCCO)C(=O)[C@@H]4C2C(=O)O1 (stereo not given in full) , thanks.
OUT: -0.864

IN: Param item: "COC(=O)[C@@]1(Cc2ccc(OC)cc2)[C@H]2c3cc(C(=O)N4CCCC4)n(Cc4ccccn4)c3C[C@H]2CN1C(=O)c1ccccc1"
OUT: 1.66

IN: Likewise for "CC(C)(C)OC(=O)CC[C@@]1(C(=O)NCCN2CCOCC2)N=C(c2ccc(OCCCO)cc2)O[C@@H]1c1ccccc1" ?
OUT: 1.28

IN: What would you report for "CCCCCCc1nc(CCCc2cc3c(c(CCCCCC)n2)[Si](C(C)C)(C(C)C)OC3)cc2c1[Si](C(C)C)(C(C)C)OC2" ?
OUT: -0.955

====

Property: z-score; scope: individual compounds
- assay method text: basal RPMI8226 viability, no added stimulus, profiling panel, cell-based, calcein-AM fluorescence, 48 h, PK04 Diversity Set (AID 1166);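 further: cells grown under basal conditions without added stimulus; test concentration not given here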
- experimental parameters: RPMI8226 myeloma viability, higher = more signal
// response body must contain only the number

IN: Give its z-score value. Item: "O=C1C[C@]2(c3ccc([N+](=O)[O-])cc3)C(=O)N(CC(F)(F)F)c3cc(CO)ccc3[C@H]2N1CC12CC3CC(CC(C3)C1)C2"
OUT: 0.0342

IN: Try the compound "COc1ccc([Si](C)(C)[C@@H]2[C@@H](CCn3cc([C@H](O)c4ccccc4)nn3)O[C@]3(C(=O)N(Cc4cccc(N5CCOC5=O)c4)c4ccccc43)[C@H]2C)cc1"
OUT: 0.274

IN: Field entry: "O=C1C[C@@](C(=O)NC2CC2)(c2ccc([N+](=O)[O-])cc2)[C@@H](c2ccc(CO)cc2)N1CC12CC3CC(CC(C3)C1)C2"
OUT: -3.09

IN: Now the same for N#Cc1ccc(NN2C(C(O)c3cccs3)C=CC3C(=O)N(c4ccccc4)C(=O)C32)cc1 (stereo unspecified)
OUT: -0.598

IN: Again, but for "COCCOC(=O)N1C(=O)[C@@]2(c3ccccc31)[C@H](c1ccc(O)cc1)N1[C@H](c3ccccc3)[C@H](c3ccccc3)OC(=O)[C@H]1[C@@H]2C(=O)N1CCc2cc(OC)c(OC)cc2C1"
OUT: -0.368

IN: Then CN1C=C(C(=O)OCCS(C)(=O)=O)C(C(=O)OCCS(C)(=O)=O)=CC(CCCO)=CC1C1CC1 (stereo unspecified) ?
OUT: 0.535

====

- assay method text: small-molecule binders of probe aNOTCH3, primary screen, biochemical, small-molecule microarray, 635/667 nm fluorescence (AID 1120);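 further: probe is a biotin-tagged antibody raised against NOTCH3 rather than NOTCH3 protein; score merges spot fluorescence near 667 nm with spot signal to noise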
- experimental parameters: higher = more signal
Where composite z-score equals or exceeds 0.1, the correct label is Criterion met; where it does not, the label is Criterion not met.

{"query smiles": "COc1ccc([Si](C)(C)[C@@H]2[C@@H](CCn3cc([C@H](O)c4ccccc4)nn3)O[C@]3(C(=O)N(Cc4cccc(N5CCOC5=O)c4)c4ccccc43)[C@H]2C)cc1", "group": "Criterion not met"}

IN: Hello, I need to know if "COCCOC(=O)N1C(=O)[C@@]2(c3ccccc31)[C@H](C(=O)Nc1nc3ccccc3s1)[C@H]1C(=O)O[C@H](c3ccccc3)[C@H](c3ccccc3)N1[C@@H]2c1ccc(OCCO)cc1" has measured composite z-score not below 0.1. Thanks!
OUT: Criterion met

IN: Now give it for "COCCCNC(=O)[C@@]1(C)c2ccccc2C(=O)N(Cc2cc(C(F)(F)F)cc(C(F)(F)F)c2)[C@H]1c1ccc(CO)cc1" too.
OUT: Criterion not met

IN: One more molecule: "COCCOC(=O)N1C(=O)[C@@]2(c3cc(C#CCNC(N)=O)ccc31)[C@H](c1ccc(OCCO)cc1)N1[C@H](c3ccccc3)[C@H](c3ccccc3)OC(=O)[C@H]1[C@@H]2C(=O)N1CCc2cc(OC)c(OC)cc2C1"
OUT: Criterion met

IN: Follow-up entry: "O=C1O[C@@H](c2ccccc2)[C@@H](c2ccccc2)N2[C@@H](c3ccc(OCCO)cc3)[C@]3(C(=O)Nc4ccc(C#CC5=CCCCC5)cc43)[C@@H](C(=O)O)[C@H]12"
OUT: Criterion met

====

z-score reference
- assay method text: fission yeast growth modulation, primary screen, strain 972, OD600, 24 h, no modulator (AID 1090);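 further: basal condition with compound alone and no growth modifier present; test concentration not given here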
- experimental parameters: S. pombe 972 growth, higher = more signal, called active from +8 up or from −8 down
Just the number.

{"molecule": "O=C1OCCC=C[C@H]2OC34C=CCN(Cc5ccccc5)C(=O)[C@H]3N(CCCO)C(=O)[C@@H]4C12 (some centres undefined)", "z-score": -0.206}
{"molecule": "NCCCCCNC(=O)[C@H]1C[C@H]2C(=O)NCC(=O)N2[C@H]1c1cccc(OCCO)c1", "z-score": -1.02}
{"molecule": "C=C[C@@H](COC(C)=O)N(Cc1ccc([N+](=O)[O-])cc1)S(=O)(=O)c1ccc(Br)cc1", "z-score": -1.26}

Query molecule follows.
IN: Can you share its z-score? I mean this molecule: "COCC(=C=CC[C@H](O)c1ccc(OCCO)cc1)C[C@H](O)c1cc(Cl)cc(Cl)c1O"
OUT: -20.5

====

- assay method text: S. cerevisiae RM11-1a growth modifiers, primary screen, strain RM11-1a, OD600, basal, 24 h (AID 1177);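 further: cultures grown under basal conditions with no added stressor; test concentration not given here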
- experimental parameters: OD600, 24 h, higher = more signal, called active from +8 up or from −8 down
measurement kind: z-score
Just the number, please, no unit after it.

Use the examples below as a reference point.
{"molecule": "N#Cc1ccc(NN2C(C(O)c3cccs3)C=CC3C(=O)N(c4ccccc4)C(=O)C32)cc1 (centres undefined)", "z-score": -1.59}
{"molecule": "C=C[C@@H](COC(C)=O)N(Cc1ccc([N+](=O)[O-])cc1)S(=O)(=O)c1ccc(Br)cc1", "z-score": 1.19}
{"molecule": "CC(C)NC(=O)[C@@H]1c2ccccc2C(=O)N(Cc2ccccc2Cl)[C@H]1c1ccc(CO)cc1", "z-score": 0.358}
{"molecule": "COc1ccc(C#Cc2ccc3c(c2)[C@]2(C(=O)N3)[C@H](C(=O)NC[C@H](O)c3ccccc3)[C@H]3C(=O)O[C@H](c4ccccc4)[C@H](c4ccccc4)N3[C@@H]2c2ccccc2OCCO)cc1", "z-score": 2.27}
{"molecule": "C=C(COC)/C(=C/C[C@H](OC(=O)c1ccncc1)c1cccc(OCCO)c1)c1cc(C(=O)OC)ccc1OC", "z-score": -0.42}
{"molecule": "C=CCNC(=O)[C@@H]1[C@H]2C(=O)O[C@H](c3ccccc3)[C@H](c3ccccc3)N2[C@H](c2ccccc2OCCO)[C@@]12C(=O)Nc1ccc(C#CC3=CCCCC3)cc12", "z-score": 1.78}
{"molecule": "COc1ccc(CCNC(=O)[C@@]2(c3ccc([N+](=O)[O-])cc3)CC(=O)N(CC34CC5CC(CC(C5)C3)C4)[C@@H]2c2ccc(CO)cc2)cc1", "z-score": 0.526}
{"molecule": "[N-]=[N+]=NCc1ccccc1C[C@@]1(C(=O)N2CCOCC2)N=C(c2ccc(OCCCO)cc2)O[C@@H]1c1ccccc1CN=[N+]=[N-]", "z-score": 1.19}
{"molecule": "O=C1O[C@H](c2ccccc2)[C@H](c2ccccc2)N2[C@H]1[C@@H](C(=O)N1CCN(c3ncccn3)CC1)[C@]1(C(=O)Nc3ccccc31)[C@H]2c1ccc(OCCO)cc1", "z-score": 1.81}
{"molecule": "CC1=C2[C@@H](CCc3ccccc3)OB(O)C[C@@H]2n2c(=O)n(-c3ccccc3)c(=O)n2C1", "z-score": -0.42}

IN: # lookup: z-score of "CO[C@H]1O[C@H](CO)[C@@H](OC(=O)Nc2ccc3c(c2)OCO3)[C@H](OC(=O)Nc2ccccc2)[C@H]1OC(=O)Nc1ccccc1"
OUT: 2.93

IN: How about CCOC(=O)C1=CCC(c2ccc([N+](=O)[O-])cc2)N(S(=O)(=O)c2ccc(C)cc2)C1 (centres undefined) ?
OUT: 2.42

IN: Also check "O=C(NCc1ccccc1)[C@]1(CCS(=O)(=O)c2ccccc2)N=C(c2ccc(OCCCO)cc2)O[C@@H]1c1ccccc1"
OUT: 1.91

IN: Same question for "COc1ccc(CCNC(=O)[C@@H]2c3ccccc3C(=O)N(Cc3ccc(OC(F)(F)F)cc3)[C@H]2c2ccc(CO)cc2)cc1" please.
OUT: -0.419
